MEASURED ON: SARS-CoV-2 RBD subunit (recombinant) (SARS-CoV-2 Wuhan-Hu-1, UniProt P0DTC2)
VALUE KIND: binding result

[[record]]
binder = "C68.281 (antibody, V domains shown) VH: QVQLVQSGAEVRKPGASVKVSCKASGYNFTSYYMHWVRQAPGQGLEWMGIINPSDGSASYAQKFQGRVTMTRDSSTSTVYMELSSLRSDDTAVYFCARGGRILQWFPYFFDYWGQGTLVTVSS VL: EIVLTQSPGTLSLSPGERATLSCRASQSVSIRYLAWYQQKPGQAPRLLIYGASSRATGIPDRFSGSGSGTDFTLTISRLEPEDFAVYYCQQYETFGQGTKVEIK"
result = "binds"

[[record]]
binder = "C68.225 (antibody, V domains shown) VH: EVQLVQSGAEVKKPGESLRISCKGSGYSFTNYWISWVRQMPGKGLEWMGRIDPSDSYTDYSPSFQGHVTISTDKSISTAYLQWSSLKASDTAMYYCARPRGIAAVGTGYNWLDPWGQGTLVIVSS VL: DIQMTQSPSTLSASVGDRVTITCRASQSINSWLAWYQQKPGKAPKLLIYDASSLESGVPSRFSGSGSGTEFTLTISSLQPADFATYYCQQYNALYTFGQGTKLEIK"
result = "binds"

[[record]]
binder = "C68.170 (antibody, V domains shown) VH: QVQLQESGPGLVKPSQTLSLTCTVSGGSISSGGYYWSWIRQHPKKDLEWIGYIYNSGSTYYNPSLKSRVTISIDTTKNQFSLKLSSVTAADTALYYCARSVGAAAQWGGEFDYWGQGTLVTVSS VL: DIQLTQSPSSLSASVGDRVTITCQASQDISNYLNWYQQKPGKAPKLLIYDVFILQAGVPSRFSGSGSGTDFTFTISSLQPEDIATYYCQQYNHLITFGGGTKVEIK"
result = "binds"

[[record]]
binder = "C68.136 (antibody, V domains shown) VH: EVQLLESGGGLVQPGGSLRLSCAASGFTFSIYAMSWVRQAPGKGLEWVSGISGSGGSTYYADSVKGRFTLSRDNSKNTLFLQMNSLRAEDTAVYYCAKGEGSVVVVSAGVWGKGTTVTVSS VL: DIQLTQSPSSLSASVGDRITITCQASQDISKSLNWYQQKPGKAPKVLIYDASNLETGVPSRFSGSGSGTDFTFTISSLQPEDIATYYCQQYDNLRLTFGGGTKVEIK"
result = "binds"

[[record]]
binder = "C68.233 (antibody, V domains shown) VH: QVQLVQSGPEVKKPGTSVKVSCKASGFTFTTSAVQWVRQARGLRLEWIGWIVVGSGNTNYGQKFQERVTITRDMSTSTAYMELSSLRSEDTAVYYCAAPHCNRTNCHDGFDIWGQGTMVTVS VL: EIVLTQSPGTLPLSPGERATLSCRASQSVRSSYLAWYQQKPGQAPRLLIYGASSRATGIPDRFSGSGSGTDFILTISRLEPEDFAVYSCQQYGSSPWTFGQGTKVEIK"
result = "binds"

[[record]]
binder = "C68.194 (antibody, V domains shown) VH: QVQLVQSGAELKRPGASVKVSCKAPGHTFTIYAMHWVRQAPGQRPEWMGWINAGNGDTKYSQKFQGRVTITRDTSASTAYMELSSLRSEDTAVYYCATSGSLRFQVDYFDHWGQGTLVTVSS VL: DIQLTQSPSTLSASVGDRVTITCRASQSISSWLAWYRQKPGKAPKLLIYDASNLESGVPSRFSGSGSGTEFTLTISSLQPDDFATYYCQQYNSYPWTFGQGTKVEIK"
result = "binds"

[[record]]
binder = "C68.256 (antibody, V domains shown) VH: QVQLQESGPGLVKPSETLSLTCSVSGGSISSSSSYWGWIRQPPGKGLEWIGNIDYSGSTYYNPSLKSRVTISVDTSKNQFSLKLSSVTAADTAVYFCARGADYGPYFDYWGQGALLTVSS VL: QSALTQPASVSGSPGQSITISCTGTSSDVGSYNLVSWYQHHPGKAPKLMIYEVSKRPSGVSNRLSGSKSGNTASLTISGLQAEDEADYYCSSYAGSSTFVVFGGGTKLTVL"
result = "binds"


The origin of these recorded values is paper PMC11542851.
